All figures here come from patent US4863935A.

Below is a list of entries, each paired with its recorded LD50 at 336 h value.
testMethodNotes: LD50 acute toxicity, ddy mice, single abdominal injection
experimentalSetup: mouse, in vivo, ip, 5 ddy mice, 14 days observation, Behrens-Koerber's method
Respond numerically; units are mg/kg and should not be typed.

CO[C@@]12[C@H](COC(N)=O)C3=C(C(=O)C(C)=C(NCCSC(=O)N4CCC[C@H]4C(=O)N(C)C)C3=O)N1C[C@@H]1N[C@@H]12    97.5
CO[C@@]12[C@H](COC(N)=O)C3=C(C(=O)C(C)=C(NCCSC(=O)NC(COCc4ccccc4)C(C)C)C3=O)N1C[C@@H]1N[C@@H]12 (stereo partly drawn)    26.3

CC1=C(NCCSC(=S)NC2CCCCC2)C(=O)C2=C(C1=O)N1C[C@H]3[C@H](N3C)[C@]1(O)[C@H]2COC(N)=O (stereo partly drawn) has a reported LD50 at 336 h of 75
